biological target: Androgen receptor (AR) (Homo sapiens, UniProt P10275); assay: Androgen receptor (AR) reporter gene assay (luciferase); conditions: AR+ARE/Luc HEK293T cells, stimulated with 11-KDHT, 24h incubation, Bright-Lite luminescence; read-out: HEK293 Luc IC50
Sequence (P10275 whole entry): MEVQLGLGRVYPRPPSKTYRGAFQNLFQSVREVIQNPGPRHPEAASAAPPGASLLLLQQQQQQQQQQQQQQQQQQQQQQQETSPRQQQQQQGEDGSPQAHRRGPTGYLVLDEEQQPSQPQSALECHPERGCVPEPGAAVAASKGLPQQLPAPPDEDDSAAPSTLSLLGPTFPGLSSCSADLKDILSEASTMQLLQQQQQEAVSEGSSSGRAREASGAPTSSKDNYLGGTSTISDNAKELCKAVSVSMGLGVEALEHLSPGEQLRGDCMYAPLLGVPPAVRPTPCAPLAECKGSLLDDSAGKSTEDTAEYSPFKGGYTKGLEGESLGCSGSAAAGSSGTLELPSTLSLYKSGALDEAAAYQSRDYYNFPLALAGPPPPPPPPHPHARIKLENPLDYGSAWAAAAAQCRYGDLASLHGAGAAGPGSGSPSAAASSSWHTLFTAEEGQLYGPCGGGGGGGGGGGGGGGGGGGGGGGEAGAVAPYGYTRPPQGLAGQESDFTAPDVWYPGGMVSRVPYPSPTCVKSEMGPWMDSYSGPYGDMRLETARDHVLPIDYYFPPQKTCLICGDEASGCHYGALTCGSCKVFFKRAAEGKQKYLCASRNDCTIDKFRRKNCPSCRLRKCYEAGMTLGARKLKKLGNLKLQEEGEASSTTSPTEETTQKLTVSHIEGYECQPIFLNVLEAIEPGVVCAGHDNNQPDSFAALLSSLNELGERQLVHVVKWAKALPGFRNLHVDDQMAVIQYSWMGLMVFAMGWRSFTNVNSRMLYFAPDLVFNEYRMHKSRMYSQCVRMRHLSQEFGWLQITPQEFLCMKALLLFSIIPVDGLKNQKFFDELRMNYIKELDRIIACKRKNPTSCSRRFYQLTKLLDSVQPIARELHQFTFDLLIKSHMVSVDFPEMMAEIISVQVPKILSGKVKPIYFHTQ
pIC50: −log10 of the molar value.
experimental_endpoint: pIC50

compound="N#Cc1cc2c(c(Cl)c1OCCCl)CCCC2Nc1ccccn1 (stereo not shown) [HANT-252]" assay_system="Androgen receptor (AR) (Homo sapiens, UniProt P10275)" measurement="6.30 to 9.00"
compound="Oc1ccc(C2CCCc3c2cc(Cl)c(OCCCl)c3Cl)nc1 (stereo not shown) [HANT-102]" assay_system="Androgen receptor (AR) (Homo sapiens, UniProt P10275)" measurement="6.00 to 6.30"
compound="Nc1n[nH]c2ccc(C3CCCc4c3cc(Cl)c(OCCCl)c4Cl)cc12 (stereo not shown) [HANT-133]" assay_system="Androgen receptor (AR) (Homo sapiens, UniProt P10275)" measurement="5.70 to 6.00"
compound="N#Cc1cc2c(c(Cl)c1OCCCl)CCCC2c1cncc(N)c1 (stereo not shown) [HANT-256]" assay_system="Androgen receptor (AR) (Homo sapiens, UniProt P10275)" measurement="5.70 to 6.00"
